tested.target: mGAT1 (Mus musculus)
Construct: expressed in transfected cells; host or cells: HEK293
assay.details: [^3H]GABA uptake assay, HEK293 cells expressing mGAT1
Type: cell-based
cond: HEK293; in presence of 100 μM compound
value.type: remaining activity at 100 µM (%)

| compound | value.type | value |
| --- | --- | --- |
| COc1ccc(C(OCCN2CCCC(C(=O)O)C2)(c2ccc(OC)cc2)c2ccc(S(=O)(=O)N(C)C)cc2)cc1 (racemic) | remaining activity at 100 µM | 67.9 |
| COCc1ccc(C(OCCN2CCCC(C(=O)O)C2)(c2ccc(COC)cc2)c2ccc(OC)cc2)cc1 (racemic) | remaining activity at 100 µM | 70.5 |
| COc1ccc(C(O)(CCCN2CCCC(C(=O)O)C2)c2ccc(OC)cc2)cc1 (racemic) | remaining activity at 100 µM | 69.5 |

---

tested.target: mGAT2 (Mus musculus, UniProt P31651)
Construct: expressed in transfected cells; host or cells: HEK293
Sequence (P31651 whole entry): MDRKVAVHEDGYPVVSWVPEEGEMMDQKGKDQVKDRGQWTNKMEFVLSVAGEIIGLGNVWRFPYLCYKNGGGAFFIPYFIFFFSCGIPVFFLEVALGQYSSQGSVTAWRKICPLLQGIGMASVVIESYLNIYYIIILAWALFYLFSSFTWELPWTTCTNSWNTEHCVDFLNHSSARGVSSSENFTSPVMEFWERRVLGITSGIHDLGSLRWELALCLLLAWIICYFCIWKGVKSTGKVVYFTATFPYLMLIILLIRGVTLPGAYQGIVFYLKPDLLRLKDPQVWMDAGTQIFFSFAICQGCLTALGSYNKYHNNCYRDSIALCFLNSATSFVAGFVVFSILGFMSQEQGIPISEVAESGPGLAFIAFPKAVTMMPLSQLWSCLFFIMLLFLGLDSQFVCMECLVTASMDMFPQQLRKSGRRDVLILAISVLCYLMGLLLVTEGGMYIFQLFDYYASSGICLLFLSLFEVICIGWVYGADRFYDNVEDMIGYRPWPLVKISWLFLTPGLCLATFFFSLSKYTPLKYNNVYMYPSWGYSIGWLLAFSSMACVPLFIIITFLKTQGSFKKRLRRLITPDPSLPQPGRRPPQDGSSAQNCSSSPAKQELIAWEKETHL
assay.details: [^3H]GABA uptake assay, HEK293 cells expressing mGAT2
Format: cell-based
cond: HEK293; in presence of 100 μM compound
value.type: remaining activity at 100 µM (%)

| compound | tested.target | remaining activity at 100 µM (%) |
| --- | --- | --- |
| COc1ccc(C(OCCN2CCC[C@H](C(=O)O)C2)(c2ccc(C=O)cc2)c2ccc(OC)cc2)cc1 [(S)‐5 a] | mGAT2 (Mus musculus, UniProt P31651) | 72.6 |
| COCc1ccc(C(OCCN2CCCC(C(=O)O)C2)(c2ccc(OC)cc2)c2ccc(OC)cc2)cc1 (racemic) | mGAT2 (Mus musculus, UniProt P31651) | 72.7 |
| CCOC(=O)C1CCCN(CCOC(c2ccc(CNCCCC(=O)O)cc2)(c2ccc(OC)cc2)c2ccc(OC)cc2)C1 (racemic) | mGAT2 (Mus musculus, UniProt P31651) | 76.7 |

---

tested.target: mGAT4 (Mus musculus, UniProt P31650)
Construct: expressed in transfected cells; host or cells: HEK293
Sequence (P31650 whole entry): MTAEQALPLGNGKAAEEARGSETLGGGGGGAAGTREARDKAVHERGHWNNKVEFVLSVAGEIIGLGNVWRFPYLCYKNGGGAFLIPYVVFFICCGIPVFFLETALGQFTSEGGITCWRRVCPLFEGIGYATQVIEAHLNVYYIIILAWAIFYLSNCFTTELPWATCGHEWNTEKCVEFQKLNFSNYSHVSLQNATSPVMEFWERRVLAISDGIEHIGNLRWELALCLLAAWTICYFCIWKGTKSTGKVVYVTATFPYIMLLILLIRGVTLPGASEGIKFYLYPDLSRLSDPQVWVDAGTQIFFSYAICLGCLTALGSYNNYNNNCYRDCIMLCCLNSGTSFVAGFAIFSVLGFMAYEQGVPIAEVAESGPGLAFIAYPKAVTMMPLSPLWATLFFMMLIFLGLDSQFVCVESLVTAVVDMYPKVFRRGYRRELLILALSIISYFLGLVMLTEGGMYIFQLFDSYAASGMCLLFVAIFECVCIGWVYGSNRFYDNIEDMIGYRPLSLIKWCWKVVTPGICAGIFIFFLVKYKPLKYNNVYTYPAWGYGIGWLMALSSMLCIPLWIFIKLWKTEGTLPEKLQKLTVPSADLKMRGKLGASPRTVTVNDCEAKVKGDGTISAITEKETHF
assay.details: [^3H]GABA uptake assay, HEK293 cells expressing mGAT4
Type: cell-based
cond: [^3H]GABA uptake; pIC50±SEM
value.type: IC50 (µM)

Solved cases (3 shown):
| compound | IC50 / µM |
| --- | --- |
| CCOC(=O)C1CCCN(CCOC(c2ccc(OC)cc2)(c2ccc(OC)cc2)c2ccc3nccn3c2)C1 (racemic) [12 d] | 57.5 |
| COc1ccc(C(OCCN2CCCC(C(=O)O)C2)(c2ccc(OC)cc2)c2ccc3nccn3c2)cc1 (racemic) [5 d] | 26.3 |
| COc1ccc(C(OCCN2CCCC(C(=O)O)C2)(c2ccc(CN3CCCC3=O)cc2)c2ccc(OC)cc2)cc1 (racemic) [5 r] | 64.6 |

[P] CCOC(=O)CCNCc1ccc(C(OCCN2CCCC(C(=O)OCC)C2)(c2ccc(OC)cc2)c2ccc(OC)cc2)cc1 (racemic) [12 o]
[Q] CCOC(=O)C1CCCN(CCOC(c2ccc(CO)cc2)(c2ccc(OC)cc2)c2ccc(OC)cc2)C1 (racemic) [12 m]
[R] COc1ccc(C(OCCN2CCCC(C(=O)O)C2)(c2ccc(CNC3(C(=O)O)CC3)cc2)c2ccc(OC)cc2)cc1 (racemic) [5 p]
Hey, quick one: sort these by IC50, largest value first please. State the ranking by listing the labels in the requested order.
Q, P, R

---

tested.target: mGAT4 (Mus musculus)
Construct: expressed in transfected cells; host or cells: HEK293
assay.details: [^3H]GABA uptake assay, HEK293 cells expressing mGAT4
Format: cell-based
cond: HEK293; in presence of 100 μM compound
value.type: remaining activity at 100 µM (%)

| compound | unit.abbrev | remaining activity at 100 µM |
| --- | --- | --- |
| CCOC(=O)C1CCCN(CCOC(c2ccc(CNCCCC(=O)O)cc2)(c2ccc(OC)cc2)c2ccc(OC)cc2)C1 (racemic) | % | 67.6 |
| CCOC(=O)C1CCCN(CCOC(c2ccc(CNC(C)(C)C(=O)OCC)cc2)(c2ccc(OC)cc2)c2ccc(OC)cc2)C1 (racemic) | % | 57.4 |
| COc1ccc(C(OCCN2CCCC(C(=O)O)C2)(c2ccc(CNCC(=O)O)cc2)c2ccc(OC)cc2)cc1 (racemic) | % | 72.2 |
| COc1ccc(C(OCCN2CCCC(C(=O)O)C2)(c2ccc(OC)cc2)c2ccc(S(=O)(=O)N(C)C)cc2)cc1 (racemic) | % | 82 |
| CCOC(=O)C1CCCN(CCOC(c2ccc(CNC3(C(=O)OCC)CC3)cc2)(c2ccc(OC)cc2)c2ccc(OC)cc2)C1 (racemic) | % | 66.1 |

---

tested.target: mGAT1 (Mus musculus, UniProt P31648)
Construct: expressed in transfected cells; host or cells: HEK293
assay.details: [^3H]GABA uptake assay, HEK293 cells expressing mGAT1
Format: cell-based
cond: HEK293; in presence of 100 μM compound
value.type: remaining activity at 100 µM (%)

| molecule | tested.target | value.type | value |
| --- | --- | --- | --- |
| CCOC(=O)C1CCCN(CCOC(c2ccc(OC)cc2)(c2ccc(OC)cc2)c2ccc(S(=O)(=O)N(C)C)cc2)C1 (racemic) | mGAT1 (Mus musculus, UniProt P31648) | remaining activity at 100 µM | 75.7 |
| COc1ccc(C(OCCN2CCCC(C(=O)O)C2)(c2ccc(CNCC(=O)O)cc2)c2ccc(OC)cc2)cc1 (racemic) | mGAT1 (Mus musculus, UniProt P31648) | remaining activity at 100 µM | 81.8 |
| CCOC(=O)C1CCCN(CCOC(c2ccc(COC)cc2)(c2ccc(OC)cc2)c2ccc(OC)cc2)C1 (racemic) | mGAT1 (Mus musculus, UniProt P31648) | remaining activity at 100 µM | 66.6 |
| COc1ccc(C(OCCN2CCCC(C(=O)O)C2)(C(=O)O)c2ccc(OC)cc2)cc1 (racemic) | mGAT1 (Mus musculus, UniProt P31648) | remaining activity at 100 µM | 100 |
| CCOC(=O)C1CCCN(CCOC(c2ccc(COC)cc2)(c2ccc(COC)cc2)c2ccc(COC)cc2)C1 (racemic) | mGAT1 (Mus musculus, UniProt P31648) | remaining activity at 100 µM | 70.3 |
| COc1ccc(C(OCCN2CCCC(C(=O)O)C2)(c2ccc(CO)cc2)c2ccc(OC)cc2)cc1 (racemic) | mGAT1 (Mus musculus, UniProt P31648) | remaining activity at 100 µM | 78.1 |

---

tested.target: mGAT1 (Mus musculus, UniProt P31648)
Construct: expressed in transfected cells; host or cells: HEK293
assay.details: MS Binding Assay with NO711 as native MS marker
cond: in presence of 100 μM compound; read-out: remaining specific NO711 binding (mGAT1)
Excerpt: For compounds with pIC50 ([^3H]GABA uptake assay) or pK i (MS Binding Assays) values close to or above 5.0, these experiments were repeated twice and SEM have been calculated. […]
value.type: remaining activity at 100 µM (%)

| compound | value.type | value |
| --- | --- | --- |
| COc1ccc(C(OCCN2CCC[C@H](C(=O)O)C2)(c2ccc(C=O)cc2)c2ccc(OC)cc2)cc1 [(S)‐5 a] | remaining activity at 100 µM | 77.4 |
| COc1ccc(C(OCCN2CCCC(C(=O)O)C2)(c2ccc(CN3CCCC3=O)cc2)c2ccc(OC)cc2)cc1 (racemic) | remaining activity at 100 µM | 97 |
| CCOC(=O)C1CCCN(CCOC(c2ccc(C#N)cc2)(c2ccc(OC)cc2)c2ccc(OC)cc2)C1 (racemic) | remaining activity at 100 µM | 97.6 |
| COCc1ccc(C(OCCN2CCCC(C(=O)O)C2)(c2ccc(COC)cc2)c2ccc(COC)cc2)cc1 (racemic) | remaining activity at 100 µM | 92.7 |
| CCOC(=O)C1CCCN(CCOC(c2ccc(CNc3ccc(C(=O)O)cc3)cc2)(c2ccc(OC)cc2)c2ccc(OC)cc2)C1 (racemic) | remaining activity at 100 µM | 102 |
